Sourced from paper PMC5540273

Readings of %Inh for the listed compounds
system: ACVRL1; conditions: concentration: 1 μM, replicates: in singlicate; n = 1
Kindly provide the numeric value in % only, without the unit symbol.

Use the examples below as a reference point.
Query: Need %Inh of CNc1cc(-c2ccc3c(N)n[nH]c3c2)nc(N)n1 , thanks.
Reply: 0

Query: Record request: %Inh value, item COC(=O)c1cccc(NC(=O)NC2CCN(c3ccnc(Nc4ccc(F)cc4)n3)C2)c1 (stereo not drawn)
Reply: 0

Query: Please look up its %Inh: O=C(Nc1n[nH]c2nc(-c3cccs3)c(Br)cc12)C1CC1
Reply: 0

Query: Looking for the measured %Inh of CCn1c(-c2c(N)noc2C)nc2cnccc21 , can you help?
Reply: 0

Query: Suppose we examine the compound c1ccc(-c2ccnc3[nH]ccc23)cc1 ; what %Inh value has been reported?
Reply: 0

Query: Which %Inh value belongs to Nc1nccc(-c2c(-c3ccc(F)cc3)ncn2C2CCN(Cc3ccccc3)CC2)n1 ?
Reply: 9

Further cases:
Query: Given the compound O=C(Nc1n[nH]c2nc(-c3cccs3)c(Br)cc12)C1CCCC1 , what is its reported %Inh?
Reply: 9

Query: Could you tell me which %Inh is on file for CS(=O)(=O)CCNCc1nc(-c2ccc3ncnc(Nc4ccc5c(cnn5Cc5ccccc5)c4)c3c2)cs1.Cl.Cl ?
Reply: 0

Query: Entry Cc1ccc(NC(=O)Nc2ccccc2F)cc1-c1ccc(C(=O)Nc2ccncc2)cc1 : reported %Inh = ?
Reply: 5

###

tested on: MAP4K3; details: concentration: 1 μM, replicates: in singlicate; n = 1
Documented %Inh across a set of compounds
Write the value in % as a bare number.

Answered examples (8):
Query: Recorded %Inh for CNC(=O)c1ccc(C)c(-n2c(C)cc(OCc3ccc(F)cc3F)c(Br)c2=O)c1 , please?
Reply: 0

Query: Look up %Inh for this compound: COc1ccc(Nc2nccc(N3CCC(NC(=O)c4cc5ccccc5s4)C3)n2)cc1 (stereo not drawn) [GSK1379738]
Reply: 2

Query: # input compound: COC(=O)C(NC(=O)NC1CCN(c2ccnc(Nc3ccc(F)cc3)n2)C1)c1ccccc1 (stereo not drawn) [GSK1379712] ; wanted: its %Inh
Reply: 0

Query: Form field: reported %Inh of Cn1cncc1-c1cc2c(Nc3ccc(OCc4ccccc4)cc3)ncnc2cn1 [GW281179]
Reply: 0

Query: What value of %Inh has been recorded for this entry: CC(=O)c1cccc(NC(=O)NC2CCN(c3ccnc(Nc4ccc(F)cc4)n3)C2)c1 (stereo not drawn) [GSK1379710]
Reply: 8

Query: Suppose we examine the compound O=C(Nc1n[nH]c2nc(-c3cccs3)c(Br)cc12)C1CC1 [SB-735297] ; what %Inh value has been reported?
Reply: 0

Query: Quick one: %Inh for CC(C)c1cc(-c2ccc3c(N)n[nH]c3c2)nc(N)n1 [GSK2250882] ?
Reply: 0

Query: Which value of %Inh has been reported for Cc1cnc(N)c(/C=C/c2cncc(C(=O)NCCc3ccc(Cl)cc3Cl)c2)c1.Cl [GSK190937] in the records?
Reply: 0

Others:
Query: Return reported %Inh; argument: COc1ccc(CSc2nnc(-c3ccc4ncsc4c3)o2)cc1C(F)(F)F
Reply: 0

Query: Entry Cc1ccc(NC(=O)c2ccc(Cl)cc2)cc1-c1ccc(C(=O)Nc2ccncc2)cc1 [GSK1398467] : reported %Inh = ?
Reply: 0

Query: What measured %Inh goes with CS(=O)(=O)CCNCc1nc(-c2ccc3ncnc(Nc4ccc5c(cnn5Cc5ccccc5)c4)c3c2)cs1.Cl.Cl [GW569716] ?
Reply: 9

Query: Requested read-out: %Inh. Entry: Cc1ccc(NC(=O)Nc2ccc(Cl)cc2)cc1-c1ccc(C(=O)Nc2ccncc2)cc1 [GSK1398472]
Reply: 0

Query: Which measured %Inh value corresponds to COc1ccc(Nc2nccc(NCCNC(=O)Nc3cc(C)ccc3C)n2)cc1 [GSK1379899] ?
Reply: 3

Query: %Inh; subject: Fc1ccc(-c2nn3cccc(F)c3c2-c2ccncc2)cc1 [GW475620]
Reply: 10

Query: Param item = CCCCc1nn2ncccc2c1-c1ccnc(NC2CC2)n1 [GW684374] ; retrieve measured %Inh.
Reply: 0

###

tested on: PIK3CD
Value Kind: Kd (nM)
Just the number please, in nM, no unit attached.

Query: Kindly state the measured Kd obtained for Cc1c(Cn2c(C)c(C)n3c(=O)cc(N4CCOCC4)nc23)cccc1C(F)(F)F [GSK2328680] with PIK3CD.
Reply: 620

###

system: DAPK3; settings: concentration: 1 μM, replicates: in singlicate; n = 1
Measured %Inh values are reported for all entries that follow.
Give the quantity in %, number only.

Query: # %Inh lookup, item CNc1nc(-c2ccc3c(N)n[nH]c3c2)cc(N2C[C@@H](C(=O)Nc3ccccc3)CC[C@H]2C)n1
Reply: 43

Query: Consider the molecule shown here: COc1cccc(C2=C(Nc3cc(Cl)c(O)c(Cl)c3)C(=O)NC2=O)c1 What is its recorded %Inh?
Reply: 17

Query: Form field: reported %Inh of O=C(Nc1n[nH]c2nc(-c3cccs3)c(Br)cc12)C1CC1
Reply: 0

Query: Requested field: %Inh. Item: CS(=O)(=O)CCNCc1nc(-c2ccc3ncnc(Nc4ccc5c(cnn5Cc5ccccc5)c4)c3c2)cs1.Cl.Cl
Reply: 0

Query: I'd like to know its %Inh. The molecule in question is COC(=O)c1cccc(NC(=O)NC2CCN(c3ccnc(Nc4ccc(OC)cc4)n3)C2)c1 (stereo not drawn)
Reply: 0

Query: May I ask what %Inh has been recorded for COc1ccc(CSc2nnc(-c3ccc4nccn4c3)o2)cc1C(F)(F)F ?
Reply: 1

Query: Entry CS(=O)(=O)CCNCc1nc(-c2ccc3ncnc(Nc4ccc(OCc5ccccc5)c(Cl)c4)c3c2)cs1.Cl : reported %Inh = ?
Reply: 0

Query: Looking for the measured %Inh of Cc1ccc(NC(=O)Nc2ccccc2)cc1-c1ccc(C(=O)Nc2ccncc2)cc1 , can you help?
Reply: 9

Query: Recorded %Inh of Fc1ccc(-c2nc3n(c2-c2ccncc2)CCS3)cc1 , please.
Reply: 0

Query: // lookup %Inh for c1ccc(-c2ccnc3[nH]ccc23)cc1
Reply: 19

Query: Please look up its %Inh: Cc1ccc(NC(=O)Nc2ccccc2F)cc1-c1ccc(C(=O)Nc2ccncc2)cc1
Reply: 0

Query: Give its %Inh value. Item: Cc1ccc(-c2nc(Nc3ccncc3)c3ccccc3n2)s1
Reply: 10

Query: Would you kindly share the measured %Inh for Cc1ccc(NC(=O)Nc2ccc(Cl)c(C(F)(F)F)c2)cc1-c1ccc(C(=O)Nc2ccncc2)cc1 ?
Reply: 0

Query: Using the record for CNc1cc(-c2ccc3c(N)n[nH]c3c2)nc(N)n1 , report its %Inh.
Reply: 37

Query: Look up %Inh: Cn1cncc1-c1cc2c(Nc3ccc(OCc4ccccc4)cc3)ncnc2cn1
Reply: 7

###

# %Inh per record follows
system: MRCKA; conditions: concentration: 1 μM, replicates: in singlicate; n = 1
Dear colleague, please return just the value in %, with no unit written.

For orientation, consider the following solved cases.
Query: Which %Inh reading was recorded for the compound NS(=O)(=O)c1cccc(N/C=C2\C(=O)Nc3ccc(S(=O)(=O)Cc4c(Cl)cccc4Cl)cc32)c1 ?
Reply: 15

Query: I would be grateful if you could share the reported %Inh for Cc1cnc(N)c(/C=C/c2cncc(C(=O)NCCc3ccc(Cl)cc3Cl)c2)c1.Cl .
Reply: 5

Query: I'd like to know its %Inh. The compound in question is CCn1c(-c2c(N)noc2C)nc2cnccc21
Reply: 8

Query: Form field: reported %Inh of COc1ccc(Nc2nccc(NCCNC(=O)Nc3cc(C)ccc3C)n2)cc1
Reply: 1

---
Query: Recorded %Inh of Cc1ccc(NC(=O)Nc2ccccc2)cc1-c1ccc(C(=O)Nc2ccncc2)cc1 , please.
Reply: 5

###

system: ZAK
Value Kind: Kd

Query: Which Kd reading was recorded for the compound Cn1cncc1C(=O)NC1CCN(c2ccnc(Nc3ccc(F)cc3)n2)C1 (centres unmarked) ?
Reply: > 10 µM

Others:
Query: // lookup Kd for COc1cccc(CNC(=O)NC2CCN(c3ccnc(Nc4ccc(F)cc4)n3)C2)c1 (centres unmarked)
Reply: > 10 µM

###

tested on: p38-beta; construct: gene MAPK11; settings: concentration: 1 μM, replicates: in singlicate; n = 1
Reported %Inh values for the following molecules.
Report the value in % with no unit label.

Query: Looking for the measured %Inh of CC[C@@H]1CO[C@H](C(=O)Nc2ccccc2)CN1c1cc(-c2ccc3c(N)n[nH]c3c2)nc(NC)n1 [GSK2376236] , can you help?
Reply: 0

Now for a further molecule.
Query: Fill in: %Inh of COC(=O)C(Cc1ccccc1)NC(=O)NC1CCN(c2ccnc(Nc3ccc(F)cc3)n2)C1 (stereo not shown) [GSK1379714] is ___
Reply: 0
